System: SUM149
experiment description: Cytotoxicity in vitro (MTT) in presence/absence of elastase
Type: cell-based
condition notes: SUM149, with (+) 10 nM neutrophil elastase, 72 h
What IC50 was measured for each of the following?

Record excerpt, results attached:
>  <compound>
CCCNC(=O)Nc1cccc(S(=O)(=O)Nc2cccc([C@@H](CC(=O)[O-])NC(=O)Nc3ccc(NC(=O)NCCOCCOCCOCCC(=O)N[C@@H](CC(=O)[O-])C(=O)N4CCC[C@H]4C(=O)N[C@H](C(=O)N=[S@@](C)(=O)Cc4cc5cc(c4)OCCCCOc4cc(F)ccc4-c4nc(ncc4F)N5)C(C)C)cc3)c2)c1.[Na+].[Na+]

>  <result>
≤ 1 nM

$$$$
>  <compound>
CCCNC(=O)Nc1cccc(S(=O)(=O)Nc2cccc([C@H](CC(=O)O)NC(=O)Nc3ccc(NC(=O)NCCOCCOCCOCCC(=O)N[C@@H](CC(=O)O)C(=O)N4CCC[C@H]4C(=O)N[C@H](C(=O)N=[S@@](C)(=O)Cc4cc5cc(c4)OCCCCOc4cc(F)ccc4-c4nc(ncc4F)N5)C(C)C)cc3)c2)c1

>  <result>
≤ 1 nM

$$$$

Give its IC50 value. Item: CCCNC(=O)Nc1cccc(S(=O)(=O)Nc2cccc([C@@H](CC(=O)O)NC(=O)Nc3ccc(NC(=O)NCCOCCOCCOCCC(=O)N[C@@H](CC(=O)O)C(=O)N4CCC[C@H]4C(=O)N[C@H](C(=O)N=S(C)(=O)Cc4ccnc(Nc5cc(-c6ccc(F)cc6OC)c(F)cn5)c4)C(C)C)cc3)c2)c1 (relative stereo)
11 to 100 nM
